From: paper PMC11571109

# System: P-gp (MDR1)
# Method: Cell permeability MDR1-MDCK II
# Format: in vitro ADME
# Condition notes: dog, MDCK-MDR1, B to A; read-out: MDR1-MDCK II, BA Papp
# Source text: Selected compounds were screened for aqueous solubility in PBS (pH 7.4), metabolic stability in mouse liver microsomes (MLM) as a measure of clearance, Log D, and permeability. ADME studies reported in this work were independently performed by WuXi AppTec (Shanghai, China). Raw data are provided upon request.
Measured property: Papp

CC(C)C[C@@H](NC(=O)[C@H]1C[C@H](c2ccccc2)CN1C(=O)CCl)c1nc2ccccc2[nH]1 ... 38.8 ×10⁻⁶ cm/s

* * *

# System: P-glycoprotein (P-gp, MDR1)
# Method: Cell permeability MDR1-MDCK II
# Assay type: in vitro ADME
# Condition notes: dog, MDCK-MDR1, B to A; read-out: MDR1-MDCK II, BA Papp
Measured property: Papp (×10⁻⁶ cm/s)

O=C(NC1CCCc2ccccc21)[C@H]1C[C@H](c2ccccc2)CN1C(=O)CCl (some centres unmarked) [5b] ... 34.5

* * *

# Method: GSH reactivity assay (LCMS)
# Type: physicochemical
# Condition notes: 1 mM glutathione (GSH) in HEPES buffer, pH 7.5; read-out: GSH t1/2 (converted)
Attribute: half-life at 50 μM
Measured property: half-life at 50 μM (h)

CC(C)C[C@@H](NC(=O)[C@H]1C[C@H](c2ccccc2)CN1C(=O)CCl)c1nc2ccccc2[nH]1 [5c] ... 6.8
O=C(Nc1cccc(Cl)c1)[C@H]1C[C@H](c2ccccc2)CN1C(=O)CCl [5a] ... 9.4
O=C(NC1CCCc2ccccc21)[C@H]1C[C@H](c2ccccc2)CN1C(=O)CCl (stereo partly drawn) [5b] ... 5.7

* * *

# Method: Cytotoxicity assay (LDH-Glo), HeLa
# Assay type: cell-based
# Condition notes: human, HeLa cells, supplementary CSV, read-out: HeLa Cell toxicity IC50
This section presents compounds with their documented IC50 at 48 h values.
Measured property: IC50 at 48 h (µM)

O=C(NC1CCCc2ccccc21)[C@H]1C[C@H](c2ccccc2)CN1C(=O)CCl (stereo partly drawn) [5b] ... 29.9
O=C(Nc1cccc(Cl)c1)[C@H]1C[C@H](c2ccccc2)CN1C(=O)CCl [5a] ... 55.8
CC(C)C[C@@H](NC(=O)[C@H]1C[C@H](c2ccccc2)CN1C(=O)CCl)c1nc2ccccc2[nH]1 [5c] ... 29.8

* * *

# Method: Cytotoxicity assay (LDH-Glo), A549
# Format: cell-based
# Condition notes: human, A549 cells, supplementary CSV, read-out: A549 Cell toxicity IC50
The entries below are paired with their reported IC50 at 48 h.
Measured property: IC50 at 48 h (µM)

CC(C)C[C@@H](NC(=O)[C@H]1C[C@H](c2ccccc2)CN1C(=O)CCl)c1nc2ccccc2[nH]1 ... 37.7
O=C(NC1CCCc2ccccc21)[C@H]1C[C@H](c2ccccc2)CN1C(=O)CCl (stereo partly drawn) ... 29.7
O=C(Nc1cccc(Cl)c1)[C@H]1C[C@H](c2ccccc2)CN1C(=O)CCl ... 27.1

* * *

# Measured target: UniProt:P26447
# Method: HTRF (TR-FRET) peptide displacement S100A4-NMII (MPN peptide)
# Type: binding
# Parameters: made in house; host or cells: E. coli Rosetta (DE3); peptide from LifeTein
# Condition notes: supplementary CSV; read-out: S100A4 IC50 HTRF assay
# key: entry, value: IC50
Measured property: IC50 (µM)

CC(C)c1c(-c2cnn(C3CCN(C(=O)/C=C/C(=O)c4ccccc4)CC3)c2)[nH]c2c(C#N)cnn2c1=O ... 0.48
O=C(CCl)Nc1ccc2c(c1)CN(CCc1cnn(-c3nccc4c(=O)[nH]cnc34)c1)CC2 ... 9.24
O=C(Nc1cccc(Cl)c1)[C@H]1C[C@H](c2ccccc2)CN1C(=O)CCl [compound 5] ... 7.4
C#CC(=O)N1CCN(CCc2cnn(-c3nccc4c(=O)[nH]cnc34)c2)CC1 ... 1.73
C=CC(=O)Nc1cccc(CN(CCc2cnn(-c3nccc4c(=O)[nH]cnc34)c2)C2CCCC2)c1 ... 9.32
COc1cccc(N2CC(NC(=O)[C@H]3C[C@H](c4ccccc4)CN3C(=O)CCl)CC2=O)c1 (stereo partly drawn) ... 4.75

* * *

# Measured target: S100A5 (Homo sapiens, UniProt P33763)
# Sequence (P33763 whole entry): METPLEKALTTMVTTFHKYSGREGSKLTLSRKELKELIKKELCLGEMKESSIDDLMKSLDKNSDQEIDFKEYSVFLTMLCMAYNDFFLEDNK
pIC50: −log10 of the molar value.
Measured property: pIC50

Cc1ccc(S(=O)(=O)/C=C/C#N)cc1 ... < 4.52

* * *

Entries and their pIC50 values follow.
Target protein (sequence): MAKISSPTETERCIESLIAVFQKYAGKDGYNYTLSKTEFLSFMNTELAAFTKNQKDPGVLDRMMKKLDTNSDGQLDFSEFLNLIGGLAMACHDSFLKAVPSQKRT
pIC50: −log10 of the molar value.
Measured property: pIC50

CC(C)C[C@@H](NC(=O)[C@H]1C[C@H](c2ccccc2)CN1C(=O)CCl)c1nc2ccccc2[nH]1 [5c] ... 4.43
O=C(Nc1cccc(Cl)c1)[C@H]1C[C@H](c2ccccc2)CN1C(=O)CCl [compound 5] ... 4.47

* * *

# Measured target: S100A4 (Homo sapiens, UniProt P26447)
# Sequence (P26447 whole entry): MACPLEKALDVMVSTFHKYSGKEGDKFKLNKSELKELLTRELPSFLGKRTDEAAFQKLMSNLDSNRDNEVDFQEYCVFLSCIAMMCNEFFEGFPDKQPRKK
# Method: biochemical
# Condition notes: read-out: IC50 S100A4 - TRTK peptide displacement; AlphaScreen, duplicate, 50 μM top FAC, 1 mM calcium
Measured property: IC50 (µM)

Cc1ccc(S(=O)(=O)/C=C/C#N)cc1 ... 1.23

* * *

pIC50: −log10 of the molar value.
The next entries give measured pIC50 for S100A11-AnII (Homo sapiens).
Measured property: pIC50

CC(C)c1c(-c2cnn(CCNC(=O)/C=C/C(=O)c3ccccc3)c2)[nH]c2c(C#N)cnn2c1=O ... 5.25
O=C1Nc2ccccc2C1NC(=O)[C@H]1C[C@H](c2ccccc2)CN1C(=O)CCl (stereo partly shown) ... < 4.52
COc1cccc(N2CC(NC(=O)[C@H]3C[C@H](c4ccccc4)CN3C(=O)CCl)CC2=O)c1 (stereo partly shown) ... < 4.52
C=CC(=O)Nc1cccc(CN(CCc2cnn(-c3nccc4c(=O)[nH]cnc34)c2)C2CCCC2)c1 ... < 4.52

* * *

# Tested on: HeLa
# Method: Cell proliferation assay (CellTiter-Glo), HeLa
# Type: cell-based
# Condition notes: Homo sapiens, 48 h, supplementary CSV
# Procedure: To further characterize the potency of the phenylproline derivatives on cancer cells, their effect on proliferation has been measured on HeLa and A549 cell lines, which are known to express S100A4.[44],[45] A cell proliferation assay was performed by cultivating cells for 48 h in complete media with various concentrations of inhibitors, up to 30 μM. At the end of the treatment, luminescence was measured after the addition of the CellTiter-Glo reagent (Figure 7A). […]
Here, each record is paired with measured IC50 data.
Measured property: IC50 (µM)

O=C(NC1CCCc2ccccc21)[C@H]1C[C@H](c2ccccc2)CN1C(=O)CCl (stereo partly drawn) [5b] ... 2.6
O=C(Nc1cccc(Cl)c1)[C@H]1C[C@H](c2ccccc2)CN1C(=O)CCl [5a] ... 3.1
CC(C)C[C@@H](NC(=O)[C@H]1C[C@H](c2ccccc2)CN1C(=O)CCl)c1nc2ccccc2[nH]1 [5c] ... 4.5

* * *

# Measured target: S100A4 (Homo sapiens, UniProt P26447)
# Method: biochemical
# Protocol: As a starting point to discover new S100 inhibitors, we used a peptide-displacement assay based on the Amplified Luminescent Proximity Homogeneous Assay (AlphaScreen) of a His-tagged protein interacting with a biotinylated peptide and its ability to be disrupted by small molecule inhibitors of protein interactions.[31] […] The optimal experimental conditions were determined by performing a protein versus peptide titration for each protein. […]
Measured property: IC50

Cc1ccc(S(=O)(=O)/C=C/C#N)cc1 [compound 1] ... < 1000 nM

* * *

# Measured target: S100A4-NMII (Homo sapiens, UniProt P26447)
# Sequence (P26447 whole entry): as above
# Method: HTRF (TR-FRET) peptide displacement S100A4-NMII (MPN peptide)
# Type: binding
# Set-up: made in house; host or cells: E. coli Rosetta (DE3); peptide from LifeTein
# Condition notes: S100A4 + 1mM GSH IC50 HTRF assay, 1 mM GSH; supplementary CSV
pIC50: −log10 of the molar value.
Measured property: pIC50

CC(C)C[C@@H](NC(=O)[C@H]1C[C@H](c2ccccc2)CN1C(=O)CCl)c1nc2ccccc2[nH]1 ... 5.80

* * *

# Measured target: S100A2 (Homo sapiens)
# Sequence (P29034 whole entry): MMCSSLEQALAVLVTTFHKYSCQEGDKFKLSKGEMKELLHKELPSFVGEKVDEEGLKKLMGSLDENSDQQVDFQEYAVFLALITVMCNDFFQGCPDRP
Measured property: IC50

Cc1ccc(S(=O)(=O)/C=C/C#N)cc1 ... > 30 µM

* * *

# Test system: P-glycoprotein (P-gp, MDR1)
# Method: Cell permeability MDR1-MDCK II
# Type: in vitro ADME
# Condition notes: dog, MDCK-MDR1, A to B; read-out: MDR1-MDCK II, AB Papp
Measured property: Papp (×10⁻⁶ cm/s)

O=C(NC1CCCc2ccccc21)[C@H]1C[C@H](c2ccccc2)CN1C(=O)CCl (some centres unmarked) ... 3.8
O=C(Nc1cccc(Cl)c1)[C@H]1C[C@H](c2ccccc2)CN1C(=O)CCl ... 0.8
